tested on: P-gp; experiment: Caco-2 bidirectional transport assay; conditions: human, Caco-2, pH 7.4, with elacridar 1 μM
measurementType: efflux ratio at 2 h, 20 μM

[[record]]
mol = "O=C(N[C@@H]1CC[C@@]2(O)[C@H]3Cc4ccc(O)c5c4[C@@]2(CCN3CC2CC2)[C@H]1O5)c1ccncc1F"
targetentity = "P-gp"
measurementtype = "efflux ratio at 2 h, 20 μM"
measurednumber = 1.3


###

molecular target: KOR (Homo sapiens, UniProt P41145); construct: expressed in transfected cells; host or cells: CHO; assay: biochemical; format: binding; details: read-out: Ki KOR
Sequence (P41145 whole entry): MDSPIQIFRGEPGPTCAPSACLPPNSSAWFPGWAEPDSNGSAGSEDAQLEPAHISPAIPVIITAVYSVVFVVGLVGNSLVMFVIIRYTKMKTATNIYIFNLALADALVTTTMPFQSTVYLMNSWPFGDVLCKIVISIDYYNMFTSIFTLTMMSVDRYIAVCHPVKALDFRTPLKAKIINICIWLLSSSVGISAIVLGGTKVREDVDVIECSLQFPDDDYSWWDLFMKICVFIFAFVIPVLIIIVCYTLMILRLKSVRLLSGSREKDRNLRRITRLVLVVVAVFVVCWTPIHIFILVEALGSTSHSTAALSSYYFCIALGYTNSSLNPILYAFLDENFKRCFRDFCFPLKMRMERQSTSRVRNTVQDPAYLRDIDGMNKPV
pKi: −log10 of the molar value.
measurementType: pKi

[[record]]
mol = "O=C(Cc1ccncc1C(F)(F)F)N[C@@H]1CC[C@@]2(O)[C@H]3Cc4ccc(O)c5c4[C@@]2(CCN3CC2CC2)[C@H]1O5"
measurementtype = "pKi"
measurednumber = 7.90


###

Ki overview
biological target: DOR (Homo sapiens); assay: biochemical; assay type: binding; design: expressed in transfected cells; host or cells: CHO
Sequence (P41143 whole entry): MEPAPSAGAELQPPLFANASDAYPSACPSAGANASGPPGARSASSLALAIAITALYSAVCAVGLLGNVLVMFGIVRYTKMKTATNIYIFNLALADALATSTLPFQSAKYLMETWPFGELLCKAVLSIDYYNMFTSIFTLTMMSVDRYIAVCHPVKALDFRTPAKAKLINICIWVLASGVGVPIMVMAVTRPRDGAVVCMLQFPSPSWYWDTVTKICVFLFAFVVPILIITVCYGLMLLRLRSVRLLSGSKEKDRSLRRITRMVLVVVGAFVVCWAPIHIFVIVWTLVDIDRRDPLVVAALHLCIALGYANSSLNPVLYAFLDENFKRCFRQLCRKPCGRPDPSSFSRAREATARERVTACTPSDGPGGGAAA
measurementType: Ki (nM)

[[record]]
mol = "O=C(N[C@@H]1CC[C@@]2(O)[C@H]3Cc4ccc(O)c5c4[C@@]2(CCN3CC2CC2)[C@H]1O5)c1ccncc1-c1ccccc1"
measurementtype = "Ki"
measurednumber = 44.8

[[record]]
mol = "CC(C)Cc1cnccc1C(=O)N[C@@H]1CC[C@@]2(O)[C@H]3Cc4ccc(O)c5c4[C@@]2(CCN3CC2CC2)[C@H]1O5"
measurementtype = "Ki"
measurednumber = 149

[[record]]
mol = "O=C(N[C@@H]1CC[C@@]2(O)[C@H]3Cc4ccc(O)c5c4[C@@]2(CCN3CC2CC2)[C@H]1O5)c1ccncc1F"
measurementtype = "Ki"
measurednumber = 157

[[record]]
mol = "O=C(N[C@@H]1CC[C@@]2(O)[C@H]3Cc4ccc(O)c5c4[C@@]2(CCN3CC2CC2)[C@H]1O5)c1ccncc1C1CCCCC1"
measurementtype = "Ki"
measurednumber = 11.2

[[record]]
mol = "N#Cc1cnccc1C(=O)N[C@@H]1CC[C@@]2(O)[C@H]3Cc4ccc(O)c5c4[C@@]2(CCN3CC2CC2)[C@H]1O5"
measurementtype = "Ki"
measurednumber = 46.3


###

biological target: mouse μ opioid receptor (Mus musculus); experiment: Calcium mobilization assay in mMOR-CHO cells
measurementType: IC50 (nM)

[[record]]
molecule = "O=C(N[C@@H]1CC[C@@]2(O)[C@H]3Cc4ccc(O)c5c4[C@@]2(CCN3CC2CC2)[C@H]1O5)c1ccncc1F [Compound 1]"
targetentity = "mouse μ opioid receptor (Mus musculus)"
measurementtype = "IC50"
measurednumber = 76.1


###

target: MOR (Mus musculus, UniProt P42866); assay: biochemical; conditions: read-out: MOR 35S-GTP[γS] Binding % Emax of DAMGO, relative to 3 μM DAMGO
Sequence (P42866 whole entry): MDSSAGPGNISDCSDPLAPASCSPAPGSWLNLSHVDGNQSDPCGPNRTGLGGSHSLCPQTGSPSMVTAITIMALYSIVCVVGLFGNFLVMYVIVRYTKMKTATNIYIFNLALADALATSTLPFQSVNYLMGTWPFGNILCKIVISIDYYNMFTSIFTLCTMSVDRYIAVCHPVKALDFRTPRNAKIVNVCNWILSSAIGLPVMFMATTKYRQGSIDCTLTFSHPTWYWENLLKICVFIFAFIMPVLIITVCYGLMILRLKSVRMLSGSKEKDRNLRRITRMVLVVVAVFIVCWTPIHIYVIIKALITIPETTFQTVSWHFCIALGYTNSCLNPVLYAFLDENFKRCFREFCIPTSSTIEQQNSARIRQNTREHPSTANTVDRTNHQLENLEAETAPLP
measurementType: Emax

[[record]]
mol = "O=C(N[C@@H]1CC[C@@]2(O)[C@H]3Cc4ccc(O)c5c4[C@@]2(CCN3CC2CC2)[C@H]1O5)c1ccncc1-c1ccccc1"
result = "44.4%"

[[record]]
mol = "O=C(N[C@@H]1CC[C@@]2(O)[C@H]3Cc4ccc(O)c5c4[C@@]2(CCN3CC2CC2)[C@H]1O5)c1ccncc1F"
result = "35%"

[[record]]
mol = "N#Cc1cnccc1C(=O)N[C@@H]1CC[C@@]2(O)[C@H]3Cc4ccc(O)c5c4[C@@]2(CCN3CC2CC2)[C@H]1O5"
result = "26.1%"

[[record]]
mol = "O=C(N[C@@H]1CC[C@@]2(O)[C@H]3Cc4ccc(O)c5c4[C@@]2(CCN3CC2CC2)[C@H]1O5)c1ccncc1C1CCCCC1"
result = "51.6%"

[[record]]
mol = "CC(C)Cc1cnccc1C(=O)N[C@@H]1CC[C@@]2(O)[C@H]3Cc4ccc(O)c5c4[C@@]2(CCN3CC2CC2)[C@H]1O5"
result = "27.3%"


###

target: KOR (Homo sapiens, UniProt P41145); construct: expressed in transfected cells; host or cells: CHO; test: biochemical; assay type: binding
pKi: −log10 of the molar value.
measurementType: pKi

[[record]]
mol = "O=C(N[C@@H]1CC[C@@]2(O)[C@H]3Cc4ccc(O)c5c4[C@@]2(CCN3CC2CC2)[C@H]1O5)c1ccncc1F"
targetentity = "KOR (Homo sapiens, UniProt P41145)"
measurementtype = "pKi"
measurednumber = 8.32

[[record]]
mol = "N#Cc1cnccc1C(=O)N[C@@H]1CC[C@@]2(O)[C@H]3Cc4ccc(O)c5c4[C@@]2(CCN3CC2CC2)[C@H]1O5"
targetentity = "KOR (Homo sapiens, UniProt P41145)"
measurementtype = "pKi"
measurednumber = 8.56

[[record]]
mol = "O=C(N[C@@H]1CC[C@@]2(O)[C@H]3Cc4ccc(O)c5c4[C@@]2(CCN3CC2CC2)[C@H]1O5)c1ccncc1C1CCCCC1"
targetentity = "KOR (Homo sapiens, UniProt P41145)"
measurementtype = "pKi"
measurednumber = 8.48

[[record]]
mol = "CC(C)Cc1cnccc1C(=O)N[C@@H]1CC[C@@]2(O)[C@H]3Cc4ccc(O)c5c4[C@@]2(CCN3CC2CC2)[C@H]1O5"
targetentity = "KOR (Homo sapiens, UniProt P41145)"
measurementtype = "pKi"
measurednumber = 7.12

[[record]]
mol = "O=C(N[C@@H]1CC[C@@]2(O)[C@H]3Cc4ccc(O)c5c4[C@@]2(CCN3CC2CC2)[C@H]1O5)c1ccncc1-c1ccccc1"
targetentity = "KOR (Homo sapiens, UniProt P41145)"
measurementtype = "pKi"
measurednumber = 8.47


###

EC50 overview
target: UniProt P42866; details: read-out: MOR 35S-GTP[γS] Binding EC50; MOR-CHO membranes
measurementType: EC50 (nM)

[[record]]
mol = "O=C(N[C@@H]1CC[C@@]2(O)[C@H]3Cc4ccc(O)c5c4[C@@]2(CCN3CC2CC2)[C@H]1O5)c1ccncc1C1CCCCC1"
measurementtype = "EC50"
measurednumber = 2.46

[[record]]
mol = "O=C(N[C@@H]1CC[C@@]2(O)[C@H]3Cc4ccc(O)c5c4[C@@]2(CCN3CC2CC2)[C@H]1O5)c1ccncc1F"
measurementtype = "EC50"
measurednumber = 1.2

[[record]]
mol = "O=C(N[C@@H]1CC[C@@]2(O)[C@H]3Cc4ccc(O)c5c4[C@@]2(CCN3CC2CC2)[C@H]1O5)c1ccncc1-c1ccccc1"
measurementtype = "EC50"
measurednumber = 1.46

[[record]]
mol = "CC(C)Cc1cnccc1C(=O)N[C@@H]1CC[C@@]2(O)[C@H]3Cc4ccc(O)c5c4[C@@]2(CCN3CC2CC2)[C@H]1O5"
measurementtype = "EC50"
measurednumber = 19.7

[[record]]
mol = "N#Cc1cnccc1C(=O)N[C@@H]1CC[C@@]2(O)[C@H]3Cc4ccc(O)c5c4[C@@]2(CCN3CC2CC2)[C@H]1O5"
measurementtype = "EC50"
measurednumber = 1.28

[[record]]
mol = "O=C(Cc1ccncc1C(F)(F)F)N[C@@H]1CC[C@@]2(O)[C@H]3Cc4ccc(O)c5c4[C@@]2(CCN3CC2CC2)[C@H]1O5"
measurementtype = "EC50"
measurednumber = 1.38


###

target: MOR (Mus musculus, UniProt P42866); assay: Competition radioligand binding, MOR ([3H]naloxone); parameters: expressed in transfected cells; host or cells: CHO; settings: CHO cell membranes
pKi: −log10 of the molar value.
pKi overview
measurementType: pKi

[[record]]
mol = "O=C(N[C@@H]1CC[C@@]2(O)[C@H]3Cc4ccc(O)c5c4[C@@]2(CCN3CC2CC2)[C@H]1O5)c1ccncc1-c1ccccc1"
measurednumber = 9.20

[[record]]
mol = "CC(C)Cc1cnccc1C(=O)N[C@@H]1CC[C@@]2(O)[C@H]3Cc4ccc(O)c5c4[C@@]2(CCN3CC2CC2)[C@H]1O5"
measurednumber = 8.14

[[record]]
mol = "N#Cc1cnccc1C(=O)N[C@@H]1CC[C@@]2(O)[C@H]3Cc4ccc(O)c5c4[C@@]2(CCN3CC2CC2)[C@H]1O5"
measurednumber = 9.06


###

Structures can show the parent of a compound that is named as a salt.
measurementType: melting point

[[record]]
compound = "O=C(N[C@@H]1CCC2(O)C3Cc4ccc(O)c5c4[C@@]2(CCN3CC2CC2)[C@H]1O5)c1ccnc(Cl)c1 (stereo partly shown) (as salt: hydrochloride)"
measurementtype = "melting point"
result = "> 250 °C"

[[record]]
compound = "O=C(N[C@@H]1CCC2(O)C3Cc4ccc(O)c5c4[C@@]2(CCN3CC2CC2)[C@H]1O5)c1ccnc(Br)c1 (stereo partly shown) (as salt: hydrochloride)"
measurementtype = "melting point"
result = "> 250 °C"

[[record]]
compound = "COc1cc(C(=O)N[C@@H]2CCC3(O)C4Cc5ccc(O)c6c5[C@@]3(CCN4CC3CC3)[C@H]2O6)ccn1 (stereo partly shown) (as salt: hydrochloride)"
measurementtype = "melting point"
result = "244 to 248 °C (dec.)"

[[record]]
compound = "Cc1cc(C(=O)N[C@@H]2CCC3(O)C4Cc5ccc(O)c6c5[C@@]3(CCN4CC3CC3)[C@H]2O6)ccn1 (stereo partly shown) (as salt: hydrochloride)"
measurementtype = "melting point"
result = "248 °C (dec.)"

